Cited source: paper PMC5540273

Test system: BMPR2
RECORDED CONDITIONS: concentration: 1 μM, replicates: in singlicate; n = 1;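 note: KINOMEscan kinase panel screen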
PROPERTY NAME: %Inh (%)
One number for each entry, in %.

{"columns": ["COMPOUND", "UNIT TEXT", "%Inh"],
 "data": [
  ["Cl.Oc1ccc(-c2nc(-c3ccccc3)[nH]c2-c2ccncc2)cc1", "%", 20]
]}

# batch: return %Inh for each of the 6 compounds below
1. CCn1c(-c2ccccn2)nc2cnccc21
2. O=C(Nc1n[nH]c2nc(-c3nccs3)c(Br)cc12)C1CCCC1
3. COc1cccc(NC(=O)NC2CCN(c3ccnc(Nc4ccc(F)cc4)n3)C2)c1 (stereo not drawn)
4. COc1ccc(Nc2nccc(-c3cccc(NC(=O)c4cc5cc(F)ccc5[nH]4)c3)n2)cc1
5. Cc1cccc(-c2nc(Nc3ccc4[nH]ncc4c3)c3ccccc3n2)n1
6. O=C(Nc1n[nH]c2cc(-c3cccc(F)c3F)ccc12)C1CC1

Result:
1. 21
2. 13
3. 7
4. 15
5. 18
6. 52

Go through the items and report each one's %Inh.
1. Cc1cc(-c2ccc3c(c2)CC[C@@H](N[C@@H](C)c2ccccc2)C3)cnc1N.Cl
2. CC(=O)Nc1nc2cnc(Nc3cc(NC(=O)c4cccc(CCC#N)c4)ccc3C)nc2s1

Result:
0
16

---

System: SYK
RECORDED CONDITIONS: concentration: 1 μM, replicates: in singlicate; n = 1
PROPERTY NAME: %Inh (%)
Answers are plain numbers, in %.

{"columns": ["MOLECULE", "%Inh, %"],
 "data": [
  ["CC(C)(C)c1ccc(C(=O)Nc2cn3cc(-c4cccnc4)ccc3n2)cc1", 0],
  ["Cc1cccc(-c2cc(Nc3ccncc3)c3ccccc3n2)n1", 2],
  ["CC(=O)Nc1nc2cnc(Nc3cc(NC(=O)c4cccc(CCC#N)c4)ccc3C)nc2s1", 15],
  ["COc1cccc(NC(=O)NC2CCN(c3ccnc(Nc4ccc(F)cc4)n3)C2)c1 (stereo not drawn)", 0]
]}

Below are some molecules; for each one, tell me its %Inh.
1. Cc1ccccc1-n1cnc2c(N)ncnc21
2. O=C(Nc1n[nH]c2nc(-c3nccs3)c(Br)cc12)C1CC1
3. O=c1cc(N2CCOCC2)nc2n(Cc3cccc(Cl)c3Cl)ccn12
4. Cc1cc(-c2ccc3c(c2)CC[C@@H](N[C@@H](C)c2ccccc2)C3)cnc1N.Cl
5. C[C@@H]1CCCCN1c1cc(-c2ccc3c(N)n[nH]c3c2)nc(N)n1

Result:
1: 100; 2: 0; 3: 32; 4: 35; 5: 10

---

Test system: MAST1
RECORDED CONDITIONS: concentration: 1 μM, replicates: in singlicate; n = 1
Please go through the items and note down their %Inh.
Answers are plain numbers, in %.

{"columns": ["MOLECULE", "%Inh, %"],
 "data": [
  ["O=C1NC(=O)C(N2CCc3ccccc32)=C1c1ccccc1Cl [SB-373598]", 0]
]}

Below is a list of molecules. For each, state its recorded %Inh.
1. Cc1cccc(-c2cc(Nc3ccncc3)c3ccccc3n2)n1 [GSK223675]
2. Cn1ccc2ncnc(Oc3ccc(Nc4nc5ccccc5[nH]4)cc3)c21
3. COc1ccccc1CNC(=O)c1cc(C(=O)c2ccccc2C)c[nH]1 [GSK364507]
4. Cc1cccc(-c2nc(-c3ccc(S(C)(=O)=O)cc3)sc2-c2ccnc(NCCc3ccccc3)c2)c1
5. COc1ccc(C2=C(Nc3cccc(C(=O)O)c3)C(=O)NC2=O)cc1 [SB-390765]
6. Cc1csc(-c2nc(Nc3ccncc3)c3ccccc3n2)n1 [GW869640]
7. Cn1cncc1-c1ccc2ncnc(Nc3ccc(OCc4ccccc4)cc3)c2c1 [GW320571]

Result:
1. 0
2. 0
3. 0
4. 0
5. 30
6. 60
7. 0

// each molecule listed below needs its %Inh
1. Cc1cc(NCC(c2ccccc2)c2ccccc2)nc(NCc2ccc(C(F)(F)F)cc2)n1 [GW497681]
2. Cn1ccc2ncnc(Oc3ccc(NC(=O)Nc4ccccc4)cc3)c21
3. COc1ccc(Nc2nccc(NCCNC(=O)Nc3ccccc3F)n2)cc1 [GSK1379901]
4. Cl.Oc1ccc(-c2nc(-c3ccccc3)[nH]c2-c2ccncc2)cc1 [SB-428218]
5. Cc1ccc(C(=O)Nc2ccc(Nc3ccnc4cc(-c5ccccn5)ccc34)cc2O)cc1.Cl [GW440146]
6. Cc1cccc(-c2nc(Nc3ccc4[nH]ncc4c3)c3ccccc3n2)n1 [GW857175]

Result:
[0, 18, 0, 0, 0, 1]

Batch request: %Inh per item, same order as input.
1. CCCc1ccc(S(=O)(=O)NC2CCN(c3ccnc(Nc4ccc(F)cc4)n3)C2)cc1 (stereo not shown) [GSK1379715]
2. O=C(Nc1ccc2c(c1)OCO2)NC1CCN(c2ccnc(Nc3ccc(F)cc3)n2)C1 (stereo not shown) [GSK1379724]
3. COc1cc2nccc(Nc3ccc(NC(=O)c4ccc(C)cc4)c(O)c3)c2cc1OC.Cl [GW440132]
4. CN(C)CCN(C)C(=O)c1cc(-c2ccncc2)c(-c2ccc(Cl)c(O)c2)o1.Cl.Cl [SB-710397]
5. Cc1cccc(-c2nc(C)cc(Nc3ccncc3)n2)n1 [GSK257997]

Result:
[48, 0, 0, 10, 0]

---

Test system: LOK
Construct: gene STK10
RECORDED CONDITIONS: concentration: 1 μM, replicates: in singlicate; n = 1
PROPERTY NAME: %Inh (%)
Give bare numbers, in %.

Worked examples, 5 molecules total:
{"columns": ["COMPOUND STRUCTURE STRING", "OBS VALUE"],
 "data": [
  ["COc1ccc(Nc2nccc(-c3cccc(NC(=O)c4cc5cc(F)ccc5[nH]4)c3)n2)cc1", 0],
  ["Cc1c(Cn2ccn3c(=O)cc(N4CCOCC4)nc23)cccc1C(F)(F)F", 0],
  ["Fc1cccc(COc2nnc(-c3ccc4c(c3)CCO4)o2)c1", 0],
  ["Cl.O=C(Nc1cccc(-c2nn3ncccc3c2-c2ccnc(Nc3cccnc3)n2)c1)c1c(F)cccc1F", 0],
  ["Cc1cccc(-c2cc(Nc3ccncc3)c3ccccc3n2)n1", 0]
]}

For each of the items listed, what is its %Inh?
1. COC(=O)c1c(-c2ccccc2)c2cc(OC)ccc2c(=O)n1Cc1ccccc1
2. COc1ccc(Nc2nccc(NCCNC(=O)Nc3ccccc3F)n2)cc1
3. NC(=O)c1nnc2ccccc2c1N
4. Cn1ccc2ncnc(Oc3ccc(NC(=O)Nc4ccccc4)cc3)c21

Result:
9
0
10
94.8

---

Tested on: VRK2
RECORDED CONDITIONS: concentration: 1 μM, replicates: in singlicate; n = 1
PROPERTY NAME: %Inh (%)
Answers are plain numbers, in %.

Example entries begin here.
{"columns": ["COMPOUND", "OBS VALUE"],
 "data": [
  ["Cc1ccc(NC(=O)Nc2cccc(Cl)c2)cc1-c1ccc(C(=O)Nc2ccncc2)cc1", 0],
  ["Cc1cc(-c2ccc3c(c2)CC[C@@H](N[C@@H](C)c2ccccc2)C3)cnc1N.Cl", 0],
  ["NC(=O)c1nnc2ccccc2c1N", 4],
  ["Cc1ccc(NC(=O)Nc2cc(C(C)(C)C)nn2-c2ccccc2)cc1", 0],
  ["COc1cc2ncnc(Nc3ccc4nc(-c5ccccc5)[nH]c4c3)c2cc1OC.Cl", 0]
]}

Required: %Inh, one value per compound below.
1. Cl.Oc1ccc(-c2nc(-c3ccccc3)[nH]c2-c2ccncc2)cc1
2. O=C(Nc1ccc2c(c1)OCO2)NC1CCN(c2ccnc(Nc3ccc(F)cc3)n2)C1 (stereo not shown)
3. COc1ccc2nc(-c3cccc(C)n3)nc(Nc3ccncc3)c2c1
4. Cn1ccc2ncnc(Oc3cccc(C(=O)Nc4ccccc4)c3)c21

Result:
[64, 0, 33, 0]

Request: Recorded %Inh for Cc1cccc(-c2nc(Nc3ccncc3)c3ccccc3n2)n1 , please?
Result: 0

---

System: LYN
RECORDED CONDITIONS: concentration: 1 μM, replicates: in singlicate; n = 1
PROPERTY NAME: %Inh (%)
Answers are plain numbers, in %.

Some entries whose results are on file:
{"columns": ["MOLECULE", "%Inh (%)"],
 "data": [
  ["Cl.O=C(Nc1cccc(-c2nn3ncccc3c2-c2ccnc(Nc3cccnc3)n2)c1)c1c(F)cccc1F [GSK312879]", 18],
  ["CN1C(=O)C(Nc2ccc(Cl)c(C(=O)O)c2)=C(c2ccc(Cl)cc2)C1=O [SB-404290]", 0],
  ["CC(=O)Nc1nc2cnc(Nc3cc(NC(=O)c4cccc(CCC#N)c4)ccc3C)nc2s1", 25],
  ["O=C(Nc1n[nH]c2cc(-c3cccc(F)c3F)ccc12)C1CC1 [SB-733894]", 0]
]}

Request: Given the entry Cc1cccc(-c2nc(-c3ccc(S(C)(=O)=O)cc3)sc2-c2ccnc(NCCc3ccccc3)c2)c1 , what %Inh was observed with LYN?
Result: 5
